Where do the numbers come from? From paper PMC5109486.

ASSAY TARGET: hMAO-A (Homo sapiens)
Construct: purchased Sigma-Aldrich; host or cells: insect cells (BTI-TN-5B1-4) infected with recombinant baculovirus; microsomal preparation
Sequence (P21397 1-527): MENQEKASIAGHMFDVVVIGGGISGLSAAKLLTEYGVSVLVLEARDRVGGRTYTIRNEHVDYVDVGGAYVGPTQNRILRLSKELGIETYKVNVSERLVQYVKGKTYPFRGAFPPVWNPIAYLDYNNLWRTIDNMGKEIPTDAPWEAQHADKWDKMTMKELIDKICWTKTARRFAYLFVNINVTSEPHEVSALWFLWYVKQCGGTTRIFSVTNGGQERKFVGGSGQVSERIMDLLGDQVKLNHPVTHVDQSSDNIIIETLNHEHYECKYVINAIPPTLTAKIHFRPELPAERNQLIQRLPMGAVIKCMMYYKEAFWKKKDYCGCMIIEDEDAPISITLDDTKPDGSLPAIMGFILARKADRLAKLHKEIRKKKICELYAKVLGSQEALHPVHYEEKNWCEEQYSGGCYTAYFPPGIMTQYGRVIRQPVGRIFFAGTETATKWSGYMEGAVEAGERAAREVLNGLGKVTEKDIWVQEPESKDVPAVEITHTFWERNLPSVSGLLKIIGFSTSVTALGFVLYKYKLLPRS
PROTOCOL SUMMARY: hMAO-A enzymatic inhibition, Amplex Red MAO assay (H2O2 from p-tyramine)
Assay type: biochemical
CONDITION LABEL: Table 2; mean ± S.E.M., n = 3; control assays; read-out: IC50 hMAO-A
pIC50: −log10 of the molar value.
PROPERTY MEASURED: pIC50

Suppose we examine the compound `COc1ccc2nc(NC(=O)Nc3ccccc3)sc2c1` ; what pIC50 value has been reported?
< 4.00

----------
ASSAY TARGET: hCOX-1 (Homo sapiens, UniProt P23219)
Construct: using arachidonic acid as substrate for hCOX-1 from human platelet microsomes; from tissue; host or cells: microsomes of human platelets isolated from buffy coats
Sequence (P23219 24-599): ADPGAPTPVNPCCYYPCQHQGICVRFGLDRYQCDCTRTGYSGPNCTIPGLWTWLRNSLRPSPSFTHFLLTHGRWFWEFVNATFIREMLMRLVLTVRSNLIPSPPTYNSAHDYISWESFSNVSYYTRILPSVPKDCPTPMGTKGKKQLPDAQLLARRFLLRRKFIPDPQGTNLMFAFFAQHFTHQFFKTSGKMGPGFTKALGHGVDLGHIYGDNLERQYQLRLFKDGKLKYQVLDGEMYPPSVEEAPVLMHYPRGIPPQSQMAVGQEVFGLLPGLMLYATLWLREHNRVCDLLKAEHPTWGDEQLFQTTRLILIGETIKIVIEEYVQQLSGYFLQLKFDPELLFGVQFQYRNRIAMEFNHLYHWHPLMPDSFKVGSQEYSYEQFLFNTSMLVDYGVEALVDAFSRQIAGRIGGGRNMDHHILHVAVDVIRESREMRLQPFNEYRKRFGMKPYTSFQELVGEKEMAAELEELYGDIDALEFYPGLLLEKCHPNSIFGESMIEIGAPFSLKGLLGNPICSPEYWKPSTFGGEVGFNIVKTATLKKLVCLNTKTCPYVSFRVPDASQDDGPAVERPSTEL
PROTOCOL SUMMARY: hCOX-1 activity, TMPD oxidation, human platelet microsomes, arachidonic acid substrate
Type: biochemical
CONDITION LABEL: Table 3; mean ± S.E.M., n = 3; rational assays selected by the modeling; read-out: IC50 hCOX-1
PROPERTY MEASURED: IC50 (µM)
Use µM as the unit, but write only the number.

Suppose we examine the compound `Oc1ccc(-c2nc(-c3ccncc3)c(-c3ccc(F)cc3)[nH]2)cc1` ; what IC50 value has been reported?
23.6

Suppose we examine the compound `COc1ccc(-c2nc(C(=O)N3CCN(C)CC3)sc2-c2ccc(OC)cc2)cc1` ; what IC50 value has been reported?
0.094

Suppose we examine the compound `O=C1NC(=O)C(c2c[nH]c3ccccc23)=C1c1c[nH]c2ccccc12` ; what IC50 value has been reported?
25.4

----------
ASSAY TARGET: hCOX-1 (Homo sapiens)
Construct: using arachidonic acid as substrate for hCOX-1 from human platelet microsomes; from tissue; host or cells: microsomes of human platelets isolated from buffy coats
PROTOCOL SUMMARY: hCOX-1 activity, TMPD oxidation, human platelet microsomes, arachidonic acid substrate
Type: biochemical
pIC50: −log10 of the molar value.
PROPERTY MEASURED: pIC50

Suppose we examine the molecule COc1cc(/C=C/C(=O)N2CCC=CC2=O)cc(OC)c1OC [Piperlongumine, piperlongumine] ; what pIC50 value has been reported?
< 4.00
